# ASSAY_TARGET: Human TK-2 (Homo sapiens, UniProt O00142)
# Sequence (O00142 34-265): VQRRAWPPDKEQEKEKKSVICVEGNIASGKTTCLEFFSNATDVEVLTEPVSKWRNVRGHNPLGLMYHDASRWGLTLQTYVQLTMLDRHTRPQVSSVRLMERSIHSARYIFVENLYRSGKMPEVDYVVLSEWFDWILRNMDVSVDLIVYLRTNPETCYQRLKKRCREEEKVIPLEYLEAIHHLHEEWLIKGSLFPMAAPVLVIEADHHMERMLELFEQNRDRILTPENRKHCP
# IC50 per record follows

- COMPOUND: "Nc1ncnc2c1ncn2[C@H]1CC[C@@H](CO)[C@@H]2C[C@@H]21"
  IC50: "> 771 µM"
- COMPOUND: "Cc1cn([C@H]2CC[C@@H](CO)[C@@H]3C[C@@H]32)c(=O)[nH]c1=O"
  IC50: "> 799 µM"
- COMPOUND: "O=c1ccn([C@H]2CC[C@@H](CO)[C@@H]3C[C@@H]32)c(=O)[nH]1"
  IC50: "> 846 µM"
- COMPOUND: "Nc1ccn(C2CCC(CO)C3CC32)c(=O)n1 (centres unmarked)"
  IC50: "> 425 µM"
- COMPOUND: "Nc1nc2c(ncn2[C@H]2CC[C@@H](CO)[C@@H]3C[C@@H]32)c(=O)[nH]1"
  IC50: "338 µM"
